Biological target: Cruzipain (Trypanosoma cruzi) (UniProt P25779)
Sequence (P25779 123-467 limits assumed): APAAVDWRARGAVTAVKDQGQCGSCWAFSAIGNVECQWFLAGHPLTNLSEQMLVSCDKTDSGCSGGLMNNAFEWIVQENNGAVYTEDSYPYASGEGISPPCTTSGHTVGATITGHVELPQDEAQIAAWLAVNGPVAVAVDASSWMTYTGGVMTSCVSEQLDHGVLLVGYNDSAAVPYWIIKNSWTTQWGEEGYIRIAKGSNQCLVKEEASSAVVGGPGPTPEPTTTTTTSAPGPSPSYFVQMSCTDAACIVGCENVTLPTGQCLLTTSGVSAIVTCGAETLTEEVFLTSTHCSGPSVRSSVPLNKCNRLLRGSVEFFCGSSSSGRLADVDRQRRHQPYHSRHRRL
Assay: Inhibition of Trypanosoma cruzi recombinant cruzain using Z-FR-AMC as substrate at 20 uM preincubated for 10 mins before substrate addition
attribute measured: inhibition
The reply should consist of the numeric value with the unit placed after it.

Record excerpt, results attached:
# compound, inhibition
records = [
    ("C/C(COc1ccccc1)=N\\N=C1/NC(=O)C(C)S1 (racemic)", "3%"),
    ("C/C(COc1ccccc1)=N\\N=C1/NC(=O)CS1", "0%"),
    ("C/C(COc1ccccc1)=N\\N=C1\\SC(c2ccccc2)C(=O)N1c1ccccc1 (racemic)", "43%"),
]

Give the measured inhibition of C/C(COc1ccccc1)=N\N=C1\SC(c2ccccc2)C(=S)N1c1ccccc1 (racemic) .
72%

* * *

Assay: Cytotoxicity against BALB/c mouse splenocytes assessed as highest nontoxic concentration by measuring [3H]-thymidine incorporation after 24 hrs by beta-radiation counting
Type: cell-based, Splenocyte
Conditions: mouse, splenocytes, read-out: Activity
attribute measured: MNTC at 24 h

Record excerpt, results attached:
# compound, MNTC at 24 h
measured = [
    ("CCC1S/C(=N/N=C(\\C)COc2ccccc2)N(C2CCCCC2)C1=O (racemic)", "> 100 µg/mL"),
    ("C/C(COc1ccccc1)=N\\N=C1\\SCC(=O)N1c1ccccc1", "> 100 µg/mL"),
    ("C/C(COc1ccccc1)=N\\Nc1nc(-c2ccc3ccccc3c2)cs1", "> 100 µg/mL"),
    ("C/C(COc1ccccc1)=N\\Nc1nc(-c2ccc(F)cc2)cs1", "> 100 µg/mL"),
    ("C/C(COc1ccccc1)=N\\N=C1\\SC(C(C)C)C(=O)N1c1ccccc1 (racemic)", "> 100 µg/mL"),
]

Now for another entry.
Give the measured MNTC at 24 h of C/C(COc1ccccc1)=N\Nc1nc(-c2ccc(Cl)c(Cl)c2Cl)cs1 .
> 1 µg/mL

* * *

Test: Cytotoxicity against BALB/c mouse splenocytes assessed as highest nontoxic concentration by measuring [3H]-thymidine incorporation after 24 hrs by beta-radiation counting
Format: cell-based, Splenocyte
Conditions: mouse, splenocytes, read-out: Activity
attribute measured: MNTC at 24 h

Record excerpt, results attached:
# molecule, MNTC at 24 h
records = [
    ("CCC1S/C(=N/N=C(\\C)COc2ccccc2)NC1=O (racemic)", "> 100 µg/mL"),
    ("CCC1S/C(=N/N=C(\\C)COc2ccccc2)N(C)C1=O (racemic)", "> 100 µg/mL"),
    ("C/C(COc1ccccc1)=N\\N=C1\\SC(C(C)C)C(=O)N1C (racemic)", "> 100 µg/mL"),
    ("C/C(COc1ccccc1)=N\\N=C1/NC(=O)C(C)S1 (racemic)", "> 100 µg/mL"),
]

Give the measured MNTC at 24 h of C/C(COc1ccccc1)=N\Nc1nc(-c2ccc(Cl)cc2Cl)cs1 .
< 1 µg/mL
